This collection of values is drawn from the supplement of paper PMC11628255.

# Test system: NanoLuc luciferase (NLuc)
# method notes: residual bioluminescent signal relative to negative (DMSO) control; higher = less interference (more residual luciferase signal)
# experimental context: metal salt concentration 5 mM; screening conditions (PBS, 0.1% BSA, pH 7.4)
Could you label it Fulfilled if measured residual bioluminescent signal is 20% or higher, and Not fulfilled otherwise?

molecule | classification
O=[N+]([O-])[O-].[Li+] [lithium nitrate] | Fulfilled
O=[N+]([O-])[O-].[Na+] [sodium nitrate] | Fulfilled
O=[N+]([O-])[O-].[K+] [potassium nitrate] | Fulfilled
O=[N+]([O-])[O-].[Ag+] [silver nitrate] | Not fulfilled
O=[N+]([O-])[O-].O=[N+]([O-])[O-].O=[N+]([O-])[O-].[Ga+3] [gallium(III) nitrate] | Not fulfilled
[Cl][Sn][Cl] [tin(II) chloride] | Not fulfilled
O=[N+]([O-])[O-].O=[N+]([O-])[O-].[Cd+2] [cadmium nitrate] | Fulfilled

###

# Tested on: firefly luciferase (FLuc)
# method notes: residual bioluminescent signal relative to negative (DMSO) control; higher = less interference (more residual luciferase signal)
# experimental context: metal salt concentration 1 mM; HEPES conditions (100 mM HEPES, 5 mM MgSO4, 10 uM ATP, pH 7.5)
value type: residual bioluminescent signal (%)

compound | recorded measurement
O=[N+]([O-])[O-].O=[N+]([O-])[O-].[Ca+2] [calcium nitrate] | 67.2
O=[N+]([O-])[O-].O=[N+]([O-])[O-].[Pb+2] [lead(II) nitrate] | 0.814
O=[N+]([O-])[O-].[Ag+] [silver nitrate] | 1.36
O=[N+]([O-])[O-].O=[N+]([O-])[O-].O=[N+]([O-])[O-].[Ga+3] [gallium(III) nitrate] | 72.6
O=[N+]([O-])[O-].[K+] [potassium nitrate] | 116
O=[N+]([O-])[O-].[Li+] [lithium nitrate] | 92.2
O=[N+]([O-])[O-].O=[N+]([O-])[O-].O=[N+]([O-])[O-].[Al+3] [aluminium nitrate] | 0.679
O=[N+]([O-])[O-].O=[N+]([O-])[O-].[Cu+2] [copper(II) nitrate] | 0.407

###

# System: NanoLuc luciferase (NLuc)
# method notes: residual bioluminescent signal relative to negative (DMSO) control; higher = less interference (more residual luciferase signal)
# experimental context: metal salt concentration 0.01 mM; screening conditions (PBS, 0.1% BSA, pH 7.4)
Form field: residual bioluminescent signal (one value per entry).

compound | residual bioluminescent signal (%)
[Cl][Sn][Cl] [tin(II) chloride] | 97
O=[N+]([O-])[O-].O=[N+]([O-])[O-].O=[N+]([O-])[O-].[Al+3] [aluminium nitrate] | 100
O=[N+]([O-])[O-].O=[N+]([O-])[O-].[Cu+2] [copper(II) nitrate] | 90.4
O=[N+]([O-])[O-].O=[N+]([O-])[O-].O=[N+]([O-])[O-].[Ga+3] [gallium(III) nitrate] | 99.5
O=[N+]([O-])[O-].O=[N+]([O-])[O-].[Cd+2] [cadmium nitrate] | 98.2
O=[N+]([O-])[O-].O=[N+]([O-])[O-].[Pb+2] [lead(II) nitrate] | 93.8
O=[N+]([O-])[O-].O=[N+]([O-])[O-].[Ni+2] [nickel(II) nitrate] | 94.5
O=[N+]([O-])[O-].O=[N+]([O-])[O-].[Zn+2] [zinc nitrate] | 93
O=[N+]([O-])[O-].[Na+] [sodium nitrate] | 96.7

###

# Test system: Renilla luciferase (RLuc)
# method notes: residual bioluminescent signal relative to negative (DMSO) control; higher = less interference (more residual luciferase signal)
# experimental context: metal salt concentration 0.01 mM; HEPES conditions (100 mM HEPES, 0.05% BSA, 0.3 M sodium ascorbate, pH 7.5)
Form field: residual bioluminescent signal (one value per entry).

compound | residual bioluminescent signal
O=[N+]([O-])[O-].O=[N+]([O-])[O-].O=[N+]([O-])[O-].[Al+3] [aluminium nitrate] | 85.7%
O=[N+]([O-])[O-].[Li+] [lithium nitrate] | 88.6%
O=[N+]([O-])[O-].O=[N+]([O-])[O-].[Cd+2] [cadmium nitrate] | 100%
O=[N+]([O-])[O-].O=[N+]([O-])[O-].[Ni+2] [nickel(II) nitrate] | 82.5%
O=[N+]([O-])[O-].[Na+] [sodium nitrate] | 93.9%
O=[N+]([O-])[O-].O=[N+]([O-])[O-].[Pb+2] [lead(II) nitrate] | 102%

###

# Test system: firefly luciferase (FLuc)
# method notes: residual bioluminescent signal relative to negative (DMSO) control; higher = less interference (more residual luciferase signal)
# experimental context: metal salt concentration 5 mM; HEPES conditions (100 mM HEPES, 5 mM MgSO4, 10 uM ATP, pH 7.5)
value type: residual bioluminescent signal

compound | value type | recorded measurement
O=[N+]([O-])[O-].O=[N+]([O-])[O-].[Zn+2] [zinc nitrate] | residual bioluminescent signal | 1.09%
O=[N+]([O-])[O-].[K+] [potassium nitrate] | residual bioluminescent signal | 86.1%
O=[N+]([O-])[O-].O=[N+]([O-])[O-].[Pb+2] [lead(II) nitrate] | residual bioluminescent signal | 0.95%
O=[N+]([O-])[O-].O=[N+]([O-])[O-].O=[N+]([O-])[O-].[Al+3] [aluminium nitrate] | residual bioluminescent signal | 0.543%
O=[N+]([O-])[O-].O=[N+]([O-])[O-].[Cd+2] [cadmium nitrate] | residual bioluminescent signal | 1.09%

###

Form field: residual bioluminescent signal (one value per entry).
# Tested on: firefly luciferase (FLuc)
# method notes: residual bioluminescent signal relative to negative (DMSO) control; higher = less interference (more residual luciferase signal)
# experimental context: metal salt concentration 1 mM; screening conditions (0.5 mM Tris, 50 mM glycine, 0.5 mM EDTA, 5 mM MgSO4, 10 uM ATP, pH 7.6)
value type: residual bioluminescent signal (%)

compound | recorded measurement
O=[N+]([O-])[O-].O=[N+]([O-])[O-].O=[N+]([O-])[O-].[Al+3] [aluminium nitrate] | 0.343
O=[N+]([O-])[O-].O=[N+]([O-])[O-].[Cd+2] [cadmium nitrate] | 0.343
O=[N+]([O-])[O-].O=[N+]([O-])[O-].[Ni+2] [nickel(II) nitrate] | 0.501
O=[N+]([O-])[O-].O=[N+]([O-])[O-].[Cu+2] [copper(II) nitrate] | 0.712
O=[N+]([O-])[O-].[Na+] [sodium nitrate] | 71.7
O=[N+]([O-])[O-].O=[N+]([O-])[O-].[Zn+2] [zinc nitrate] | 0.817
O=[N+]([O-])[O-].O=[N+]([O-])[O-].[Pb+2] [lead(II) nitrate] | 0.685
O=[N+]([O-])[O-].O=[N+]([O-])[O-].[Ca+2] [calcium nitrate] | 60.2

###

# Test system: Renilla luciferase (RLuc)
# method notes: residual bioluminescent signal relative to negative (DMSO) control; higher = less interference (more residual luciferase signal)
# experimental context: metal salt concentration 5 mM; HEPES conditions (100 mM HEPES, 0.05% BSA, 0.3 M sodium ascorbate, pH 7.5)

compound | residual bioluminescent signal, %
O=[N+]([O-])[O-].O=[N+]([O-])[O-].[Cd+2] [cadmium nitrate] | 1.41
O=[N+]([O-])[O-].[Na+] [sodium nitrate] | 109
O=[N+]([O-])[O-].O=[N+]([O-])[O-].[Cu+2] [copper(II) nitrate] | 0.774
O=[N+]([O-])[O-].O=[N+]([O-])[O-].O=[N+]([O-])[O-].[Ga+3] [gallium(III) nitrate] | 3.03
O=[N+]([O-])[O-].O=[N+]([O-])[O-].[Ni+2] [nickel(II) nitrate] | 22.4

###

Form field: residual bioluminescent signal (one value per entry).
# Test system: firefly luciferase (FLuc)
# method notes: residual bioluminescent signal relative to negative (DMSO) control; higher = less interference (more residual luciferase signal)
# experimental context: metal salt concentration 0.01 mM; HEPES conditions (100 mM HEPES, 5 mM MgSO4, 10 uM ATP, pH 7.5)

molecule | residual bioluminescent signal, %
O=[N+]([O-])[O-].[Na+] [sodium nitrate] | 90
O=[N+]([O-])[O-].[Ag+] [silver nitrate] | 1.36
O=[N+]([O-])[O-].O=[N+]([O-])[O-].O=[N+]([O-])[O-].[Ga+3] [gallium(III) nitrate] | 86.3
O=[N+]([O-])[O-].O=[N+]([O-])[O-].[Pb+2] [lead(II) nitrate] | 3.12

###

Form field: residual bioluminescent signal (one value per entry).
# Tested on: NanoLuc luciferase (NLuc)
# method notes: residual bioluminescent signal relative to negative (DMSO) control; higher = less interference (more residual luciferase signal)
# experimental context: metal salt concentration 5 mM; HEPES conditions (100 mM HEPES, 0.1% BSA, pH 7.5)
value type: residual bioluminescent signal (%)

compound | recorded measurement
O=[N+]([O-])[O-].O=[N+]([O-])[O-].[Cd+2] [cadmium nitrate] | 84.1
O=[N+]([O-])[O-].[Li+] [lithium nitrate] | 102
O=[N+]([O-])[O-].O=[N+]([O-])[O-].[Zn+2] [zinc nitrate] | 16.1
O=[N+]([O-])[O-].O=[N+]([O-])[O-].[Pb+2] [lead(II) nitrate] | 7.56
O=[N+]([O-])[O-].O=[N+]([O-])[O-].[Ni+2] [nickel(II) nitrate] | 89.9
O=[N+]([O-])[O-].O=[N+]([O-])[O-].O=[N+]([O-])[O-].[Ga+3] [gallium(III) nitrate] | 8.8
O=[N+]([O-])[O-].O=[N+]([O-])[O-].O=[N+]([O-])[O-].[Al+3] [aluminium nitrate] | 107
[Cl][Sn][Cl] [tin(II) chloride] | 87.3
O=[N+]([O-])[O-].O=[N+]([O-])[O-].[Ca+2] [calcium nitrate] | 109
